Entries annotated with measured normalized growth
Assay: chemical genetic growth profiling, strain panel (AID 1159580);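 also: tested at 20 µM; growth read once vehicle control cultures reached saturation at 30 °C; 1 = growth at the plate median or of vehicle wells; lower values mean less growth of the strain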
Conditions: S. cerevisiae deletion strains, growth OD, locus YBR136W, strain MEC1, stronger effect = lower value
Out of some 5,500 compounds screened, about 2,000 (36%) were called active. Another 18% or so got no clear call; they are omitted. Some of the results follow.
assay_readout: normalized growth

| compound | recorded_result |
| --- | --- |
| O=[N+]([O-])c1ccc(Sc2ssc(=S)c2-c2ccccc2)nc1 | 0.952 |
| Cc1c(C(=S)Nc2ccccc2)sc2ccccc12 | 0.947 |
| S=c1[nH]nc(Nc2ccc(I)cc2)s1 | 0.871 |
| O=C(Nc1ccc(OC(F)(F)F)cc1)N1CCN(c2nc(-c3ccccc3)ns2)CC1 | 0.992 |
| CCc1ccn2cc(Nc3ccccc3Cl)nc2c1 | 0.968 |
| CC(C)(CCC(C)(C)N1C(=O)c2cccc3cccc(c23)C1=O)N1C(=O)c2cccc3cccc(c23)C1=O | 0.107 |
| FC(F)(F)c1ccnc(N2CCCN(C(=S)Nc3ccc(Cl)cc3Cl)CC2)n1 | 0.973 |
| Cc1nc(-c2ccc(S(=O)(=O)Nc3ccc(Br)cc3Cl)s2)cs1 | 0.942 |
| O=C(Nc1ccc(Cl)cc1)OCCSc1nc2ccccc2s1 | 0.976 |
| CC1(C)OC(=O)C(=Cc2cccn2-c2ccc(C(F)(F)F)cc2)C(=O)O1 | 1.03 |
| N#CC(C#N)=Cc1ccc(-c2ccccc2C(F)(F)F)o1 | 0.947 |
| Cc1ccc(NS(=O)(=O)c2ccc(Cl)cc2)c(N=Cc2cc(Cl)cc(Cl)c2O)c1 | 0.961 |
| Cc1ccc(NS(=O)(=O)c2ccc(-c3csc(C)n3)s2)c(C)c1 | 0.981 |
| CC1(C)OC(=O)C(=Cc2cccn2-c2ccc(OC(F)(F)F)cc2)C(=O)O1 | 0.987 |
| CC(=O)Nc1ccc(S(=O)(=O)Nc2ccccc2Oc2ccc(Cl)cc2Cl)cc1 | 0.993 |
| CCCCN(C)C(=O)c1cc([N+](=O)[O-])cc2c1-c1ccc([N+](=O)[O-])cc1C2=C(C#N)C#N | 0.977 |
| Cc1ccc(NC(=O)c2ccccc2N=Cc2cc(Cl)cc(Cl)c2O)c(N=Cc2cc(Cl)cc(Cl)c2O)c1 | 0.927 |
| CC(C)(C)c1ccc(C(=O)NNc2c(Cl)cccc2Cl)cc1 | 0.97 |
| OC(=Cc1nc2ccccc2nc1C=C(O)c1ccc(Cl)cc1)c1ccc(Cl)cc1 | 0.967 |
| OC(CN1CCN(c2nc3ccc(Cl)cc3s2)CC1)Cn1ccc2ccccc21 (configuration not stated) | 0.996 |
| O=[N+]([O-])c1ccc2oc(C(O)c3cccc(Cl)c3)cc2c1 (configuration not stated) | 0.957 |
| Cc1onc(-c2c(Cl)cccc2Cl)c1C(=O)NC(C)(C)CC(C)(C)C | 0.989 |
